test_system: Interleukin-23 receptor (Homo sapiens)
Sequence (Q5VWK5 whole entry): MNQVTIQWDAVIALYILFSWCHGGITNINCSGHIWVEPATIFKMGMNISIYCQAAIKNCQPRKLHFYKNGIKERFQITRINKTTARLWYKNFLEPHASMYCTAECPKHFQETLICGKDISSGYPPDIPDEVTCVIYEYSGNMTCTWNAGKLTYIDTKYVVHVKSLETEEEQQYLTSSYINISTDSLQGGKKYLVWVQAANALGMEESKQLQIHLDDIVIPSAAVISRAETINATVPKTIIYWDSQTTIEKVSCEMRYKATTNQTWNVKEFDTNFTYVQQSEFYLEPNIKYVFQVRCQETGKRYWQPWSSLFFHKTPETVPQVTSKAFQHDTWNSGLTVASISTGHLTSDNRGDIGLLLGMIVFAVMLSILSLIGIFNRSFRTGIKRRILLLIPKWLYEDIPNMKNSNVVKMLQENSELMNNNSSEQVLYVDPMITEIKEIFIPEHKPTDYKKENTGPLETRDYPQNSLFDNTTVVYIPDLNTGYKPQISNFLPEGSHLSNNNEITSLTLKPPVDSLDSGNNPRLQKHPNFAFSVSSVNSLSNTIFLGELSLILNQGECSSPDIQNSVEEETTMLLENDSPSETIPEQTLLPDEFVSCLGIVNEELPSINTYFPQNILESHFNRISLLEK
protocol: Inhibition of interleukin-23 receptor in human DB cells assessed as reduction in IL-23-stimulated STAT3 phosphorylation incubated for 30 mins by HTRF assay
Assay type: cell-based
value_type: IC50

smi	value_type	value_measured
CC(=O)N[C@H](C(=O)N[C@@H](CCC(N)=O)C(=O)N[C@H](C(=O)N[C@@H](Cc1c[nH]c2ccccc12)C(=O)N[C@@H](CCC(N)=O)C(=O)N[C@H](C(=O)N[C@@H](Cc1ccc(OCCN)cc1)C(=O)N[C@@H](Cc1ccc2ccccc2c1)C(=O)N[C@@](C)(CCCCN)C(=O)N[C@@H](CCC(=O)O)C(=O)N[C@@H](CC(N)=O)C(=O)N[C@@H](C)C(N)=O)C(C)(C)S)[C@@H](C)O)C(C)(C)S	IC50	< 10 nM
CC(=O)NCCCC[C@H](NC(=O)C(C)(C)NC(=O)[C@H](Cc1ccc2ccccc2c1)NC(=O)[C@H](Cc1ccc(OCCN)cc1)NC(=O)[C@@H](NC(=O)[C@H](CCC(N)=O)NC(=O)[C@H](Cc1c[nH]c2ccccc12)NC(=O)[C@@H](NC(=O)[C@H](CCC(N)=O)NC(=O)[C@@H](NC(=O)[C@@H](Cc1ccccc1)NC(C)=O)C(C)(C)S)[C@@H](C)O)C(C)(C)S)C(=O)N[C@@H](CC(N)=O)C(=O)N[C@@H](CC(N)=O)C(N)=O	IC50	< 10 nM
CC(=O)NCCCC[C@H](NC(=O)[C@](C)(CCCCNC(C)=O)NC(=O)[C@H](Cc1ccc2ccccc2c1)NC(=O)[C@H](Cc1ccc(OCCNC(C)=O)cc1)NC(=O)[C@@H](NC(=O)[C@H](CCC(N)=O)NC(=O)[C@H](Cc1c[nH]c2ccccc12)NC(=O)[C@@H](NC(=O)[C@H](CCC(N)=O)NC(=O)[C@@H](NC(C)=O)C(C)(C)S)[C@@H](C)O)C(C)(C)S)C(=O)N[C@@H](CC(N)=O)C(=O)NCC(N)=O	IC50	< 10 nM

Cited source: ChEMBL document CHEMBL4417631
